Sourced from patent US8461152B2

Target: human V1a receptor (Homo sapiens)
Construct: expressed in transfected cells; host or cells: HEK293 cells, transiently transfected; membrane preparation
Experiment: human V1a receptor binding studies (SPA, 3H-Vasopressin, membranes of transfected HEK293 cells)
Conditions: displacement of 3H-Vasopressin, HEK293 cell membranes, 1 h at room temperature; Ki by Cheng-Prussoff equation; read-out: pKi (hV1a) (converted)
Protocol: The human V1a receptor was cloned by RT-PCR from total human liver RNA. The coding sequence was subcloned in an expression vector after sequencing to confirm the identity of the amplified sequence. […] Cell membranes were prepared from HEK293 cells transiently transfected with the expression vector and grown in 20 liter fermenters with the following protocol. […]
endpoint: Ki (nM)
Provide the reading as a plain figure in nM.

# example entries with known answers
molecular_string	measurement_target	measurement
CN1Cc2cc(Cl)ccc2-n2c(nnc2[C@H]2CC[C@H](Oc3ccccc3)CC2)C1	human V1a receptor (Homo sapiens)	1.58
CN(C)CC(=O)N1Cc2cc(Cl)ccc2-n2c(nnc2[C@H]2CC[C@H](Oc3ccccc3)CC2)C1	human V1a receptor (Homo sapiens)	2.09
CN1Cc2cc(Cl)ccc2-n2c(nnc2[C@H]2CC[C@H](Oc3ccc4ccccc4c3)CC2)C1	human V1a receptor (Homo sapiens)	5.75
CN1Cc2cc(Cl)ccc2-n2c(nnc2[C@H]2CC[C@H](Oc3ncccn3)CC2)C1	human V1a receptor (Homo sapiens)	5.5
CN1Cc2cc(Cl)ccc2-n2c(nnc2[C@H]2CC[C@H](Oc3cccc(Cl)n3)CC2)C1	human V1a receptor (Homo sapiens)	2.4
CN1Cc2cc(Cl)ccc2-n2c(nnc2[C@H]2CC[C@@H](Oc3ccccc3)CC2)C1	human V1a receptor (Homo sapiens)	2.88
CN1Cc2cc(Cl)ccc2-n2c(nnc2[C@H]2CC[C@H](Oc3ccc(Cl)cn3)CC2)C1	human V1a receptor (Homo sapiens)	2.82
CC(C)(C)OC(=O)N1Cc2cc(Cl)ccc2-n2c(nnc2[C@H]2CC[C@@H](Oc3ncccn3)CC2)C1	human V1a receptor (Homo sapiens)	12.6
CC(C)(C)OC(=O)N1Cc2cc(Cl)ccc2-n2c(nnc2[C@H]2CC[C@H](Oc3ccc(F)cc3)CC2)C1	human V1a receptor (Homo sapiens)	3.72
CC(C)(C)OC(=O)N1Cc2cc(Cl)ccc2-n2c(nnc2[C@H]2CC[C@H](Oc3cccnc3)CC2)C1	human V1a receptor (Homo sapiens)	1.51

Ask | Bench note: what Ki did COc1cccc(O[C@H]2CC[C@H](c3nnc4n3-c3ccc(Cl)cc3CN(C)C4)CC2)c1 show?
Reply | 2.09

Ask | For the compound CN1Cc2cc(Cl)ccc2-n2c(nnc2[C@H]2CC[C@H](Oc3cnccn3)CC2)C1 , what Ki is on record?
Reply | 7.59

Ask | What value of Ki has been recorded for this entry: CC(C)(C)OC(=O)N1Cc2cc(Cl)ccc2-n2c(nnc2[C@H]2CC[C@H](Oc3cc(F)cc(F)c3)CC2)C1
Reply | 3.47

Ask | Look up Ki: CN1Cc2cc(Cl)ccc2-n2c(nnc2[C@H]2CC[C@H](Oc3cccnn3)CC2)C1
Reply | 9.12

Ask | Find the recorded Ki belonging to CC(C)(C)OC(=O)N1Cc2cc(Cl)ccc2-n2c(nnc2[C@H]2CC[C@H](Oc3ccc4ccccc4c3)CC2)C1 and report it.
Reply | 9.33

Ask | Record request: Ki value, item CN1Cc2cc(Cl)ccc2-n2c(nnc2[C@H]2CC[C@H](Oc3cccnc3)CC2)C1
Reply | 4.57

----------
target: human V1a receptor (Homo sapiens); construct: expressed in transfected cells; host or cells: HEK293 cells, transiently transfected; membrane preparation; test: human V1a receptor binding studies (SPA, 3H-Vasopressin, membranes of transfected HEK293 cells); details: displacement of 3H-Vasopressin, HEK293 cell membranes, 1 h at room temperature; Ki by Cheng-Prussoff equation; read-out: pKi (hV1a) (converted)
Structures can show the parent of a compound that is named as a salt.
endpoint: Ki (nM)
Please respond with the number in nM and leave the unit unwritten.

// below: answered compounds
compound	measurement
CC(C)(C)OC(=O)N1Cc2cc(Cl)ccc2-n2c(nnc2[C@H]2CC[C@H](Oc3cccnn3)CC2)C1 [Example 92]	2.4
CN1Cc2cc(Cl)ccc2-n2c(nnc2[C@H]2CC[C@H](Oc3cccc(Cl)c3)CC2)C1 [Example 28]	3.09
CC(C)(C)OC(=O)N1Cc2cc(Cl)ccc2-n2c(nnc2[C@H]2CC[C@@H](Oc3cccnn3)CC2)C1 [Example 93]	7.94

Here's the next entry for you.
Ask | Short answer please: Ki, human V1a receptor (Homo sapiens), entry N#Cc1ccccc1O[C@H]1CC[C@H](c2nnc3n2-c2ccc(Cl)cc2CNC3)CC1 [Example 47, hydrochloride]
Reply | 1.2

----------
Some compounds, each annotated with its measured log10 of Ki.
biological target: human V1a receptor (Homo sapiens, UniProt P37288); construct: expressed in transfected cells; host or cells: HEK293 cells, transiently transfected; membrane preparation; experiment: human V1a receptor binding studies (SPA, 3H-Vasopressin, membranes of transfected HEK293 cells); conditions: displacement of 3H-Vasopressin, HEK293 cell membranes, 1 h at room temperature; Ki by Cheng-Prussoff equation; read-out: pKi (hV1a) (converted)
Sequence (P37288 whole entry): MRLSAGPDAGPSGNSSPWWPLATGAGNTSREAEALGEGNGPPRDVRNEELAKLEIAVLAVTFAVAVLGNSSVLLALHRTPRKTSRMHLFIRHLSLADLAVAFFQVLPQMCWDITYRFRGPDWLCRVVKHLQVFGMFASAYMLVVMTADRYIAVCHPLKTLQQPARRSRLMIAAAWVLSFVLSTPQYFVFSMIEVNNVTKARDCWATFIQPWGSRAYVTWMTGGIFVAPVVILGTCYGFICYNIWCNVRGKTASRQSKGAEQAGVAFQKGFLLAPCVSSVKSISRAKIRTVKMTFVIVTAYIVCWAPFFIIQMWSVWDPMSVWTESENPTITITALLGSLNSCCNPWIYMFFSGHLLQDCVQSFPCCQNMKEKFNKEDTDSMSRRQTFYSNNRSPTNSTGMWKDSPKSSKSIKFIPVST
Counter-ions that a name gives are not always drawn.
Response schema: value (number) is log10 of Ki in units of nM.

The examples below pair each entry with its known result.
compound	log10 of Ki
CC(C)(C)OC(=O)N1Cc2cc(Cl)ccc2-n2c(nnc2[C@H]2CC[C@H](Oc3ccccn3)CC2)C1	0.52
CC(=O)N1Cc2cc(Cl)ccc2-n2c(nnc2[C@H]2CC[C@H](Oc3ccccc3)CC2)C1	0.15
Fc1ccc(O[C@H]2CC[C@H](c3nnc4n3-c3ccc(Cl)cc3CNC4)CC2)nc1	0.96
CN1Cc2cc(Cl)ccc2-n2c(nnc2[C@H]2CC[C@H](Oc3ccccn3)CC2)C1	0.04

Ask | I have this compound here, Clc1ccc2c(c1)CNCc1nnc([C@H]3CC[C@H](Oc4ccccn4)CC3)n1-2 [Example 68, hydrochloride] , and I need its recorded log10 of Ki.
Reply | 0.79

Ask | Reported log10 of Ki, compound Cc1cccc(O[C@H]2CC[C@H](c3nnc4n3-c3ccc(Cl)cc3CNC4)CC2)n1 : ____
Reply | 0.76

Ask | Need log10 of Ki of CC(C)(C)OC(=O)N1Cc2cc(Cl)ccc2-n2c(nnc2[C@H]2CC[C@H](Oc3ccc(C(F)(F)F)cc3)CC2)C1 , thanks.
Reply | 0.96

Ask | I am curious: what log10 of Ki value has been reported for CC(C)(C)OC(=O)N1Cc2cc(Cl)ccc2-n2c(nnc2[C@H]2CC[C@H](Oc3cccc(Cl)n3)CC2)C1 ?
Reply | 0.96

Ask | Need log10 of Ki of CC(C)(C)OC(=O)N1Cc2cc(Cl)ccc2-n2c(nnc2[C@H]2CC[C@H](Oc3cccc(C(C)(C)C)c3)CC2)C1 , thanks.
Reply | 1.26

Ask | Requested field: log10 of Ki. Item: Clc1ccc2c(c1)CN(Cc1ccccn1)Cc1nnc([C@H]3CC[C@H](Oc4ccccc4)CC3)n1-2
Reply | 0.26

Ask | For the compound Cc1cccc(O[C@H]2CC[C@H](c3nnc4n3-c3ccc(Cl)cc3CNC4)CC2)c1 [Example 36, hydrochloride] , what log10 of Ki is on record?
Reply | 0.88

Ask | Query (compound): CC(C)(C)OC(=O)N1Cc2cc(Cl)ccc2-n2c(nnc2[C@H]2CC[C@H](Oc3ccccc3C#N)CC2)C1 ; field requested: log10 of Ki
Reply | 0.46

Ask | Reported log10 of Ki, compound CN(C)S(=O)(=O)N1Cc2cc(Cl)ccc2-n2c(nnc2[C@H]2CC[C@H](Oc3ccccc3)CC2)C1 : ____
Reply | 0.30
